Reference for the values: ChEMBL document CHEMBL3407437

So I've got a bunch of molecules here, and I need their IC50 values.
procedure-details: Inhibition of Escherichia coli UPPS using FPP/IPP as substrate by spectrophotometry
Give bare numbers, in µM.

| molecule | data-value |
| --- | --- |
| OC[C@H]1O[C@@H](Oc2cccc(C#Cc3ccc(C#Cc4cccc(C5=NCCN5)c4)cc3)c2)[C@H](O)[C@@H](O)[C@@H]1O | 14 |
| Cn1cc(NC(=O)c2cc(NC(=O)CNC(=N)N)cn2C)cc1C(=O)NCCC(=N)N [NETROPSIN] | 1400 |
| CCCCCCOc1cccc(NC(=O)c2ccc(-c3ccc(C(=O)Nc4cccc(C5=NCCN5)c4)cc3)cc2)c1 | 25 |
| O=C(Nc1ccc(C2=NCCN2)cc1)c1ccc(C(=O)Nc2ccc(C3=NCCN3)cc2)c([N+](=O)[O-])c1 | 4.8 |
| N=C(N)c1ccc(OCCCCCOc2ccc(C(=N)N)cc2)cc1 [PENTAMIDINE] | 400 |

Need IC50 for each of these molecules.
1. O=C(Nc1cccc(Oc2ccccc2)c1)c1ccc(-c2ccc(C(=O)Nc3cccc(C4=NCCN4)c3)cc2)cc1
2. NCCc1cc(Br)cc(C#Cc2cccc(C#Cc3cc(Br)cc(CCN)c3)c2)c1
3. c1cc2cc(-c3ccc(-c4cc5ccc(C6=NCCCN6)cc5[nH]4)cc3)[nH]c2cc1C1=NCCCN1

Result:
1: 11; 2: 6.1; 3: 0.68
